measurement_notes: NCI Yeast Anticancer Drug Screen. Data for the rad50 strain (AID 155);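 also: 0% = growth of vehicle-only cultures of the same strain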
condition_details: S. cerevisiae rad50 strain growth inhibition; at 50.0 µM; stronger effect = higher value
This is part of a sample that, as a whole, favours compounds with a hit. Of some 79,000 tested, about 15% had one in any assay.
// thresholds for growth inhibition classes: bin 1 (below 60%), bin 2 (60% to below 90%), bin 3 (90% or more)

>>> df
                                   molecule  category
0  c1ccc2cc(OCC3CO3)c(OCC3CO3)cc2c1 (configuration not stated)     bin 1
1               Cc1ccc(Nc2n[nH]c(=S)s2)cc1C     bin 2
2  Cc1ccccc1C1=C(CC(=O)O)c2ccccc2CC1C (configuration not stated)     bin 3

Form field 'band' for `CC(C)(C(=O)NN)c1ccccc1` bin 1

Form field 'band' for `Cc1ccc(S(=O)(=O)N/N=C/c2c(O)ccc3ccccc23)cc1` bin 2

* * *

Give measured growth inhibition for each item. Keep answers brief.
measurement_notes: NCI Yeast Anticancer Drug Screen. Data for the CLN2oe strain (AID 163);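 also: 0% = growth of vehicle-only control cultures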
condition_details: S. cerevisiae CLN2oe strain, at 1.2 µM, stronger effect = higher value
About 79,000 compounds went through this panel and 15% of them were active in at least one assay; those are over-represented in the sample as a whole. Starred links: 1 amine or outer side, 2 acyl side, 3 side chain; linkers in the order of their positions; H or OH if unused. Positions of bridges follow the written chain, without caps; N, C: chain ends. Non-standard residues stand in square brackets, D forms with d. Residues, ends and D or L forms follow the SMILES beside them. Chains are numbered I, II in the order given. Actinocin(9to1) = Cc1c2oc3c(C)ccc(C(=O)[*:1])c3nc-2c(C(=O)[*:2])c(N)c1=O; aThr = C[C@H](O)[C@H](N)C(=O)O; NMeV = CN[C@H](C(=O)O)C(C)C; Sar = CNCC(=O)O
Answers are plain numbers, in %.

A selection of reference data follows.
molecule	test_value
CCOC(=O)C(NC(=O)c1ccccc1)[CH](c1ccccc1)[Sn]([c]1ccccc1)([c]1ccccc1)[c]1ccccc1 (configuration not stated)	-5
Cc1c2oc3c(C)ccc(C(=O)N[C@@H]4C(=O)N[C@H](C(C)C)C(=O)N5CCC[C@H]5C(=O)N(C)CC(=O)N(C)[C@@H](C(C)C)C(=O)O[C@H]4C)c3nc-2c(C(=O)N[C@@H]2C(=O)N[C@H](C(C)C)C(=O)N3CCC[C@H]3C(=O)N(C)CC(=O)N(C)[C@@H](C(C)C)C(=O)O[C@H]2C)c(N)c1=O (I: [aThr][dV]P[Sar][NMeV] / II: [aThr][dV]P[Sar][NMeV]; ester I:1-I:C, II:1-II:C; linker I:N-II:N via Actinocin(9to1))	8
O=[N+]([O-])c1cccc2nc3ccccc3c(NCCC[N+]3([O-])CCOCC3)c12	-15
O=C(/C(=C/c1ccccc1)CBr)c1ccccc1	2
CN(C)N=Nc1ccc(NC=O)cc1	31

Please give growth inhibition for each item listed below.
1. CC(C)c1ccc(C2NC(=S)NC3=C2c2ccccc2C3=O)cc1 (configuration not stated)
2. O=c1c(Br)cc2c(-c3ccccc3)c3cc(Br)c(O)c(Br)c3oc-2c1Br
3. CCOC(=O)C1=C(C)NC(C)=C(C(=O)OCC)C1c1ccc(Cl)cc1
4. OC1C#CCSCC#C/C=C\1 (configuration not stated)
5. O=c1[nH]cc(F)c(=O)[nH]1

[-9, 3, -4, -22, 21]

Please give growth inhibition for each item listed below.
1. O=S(=O)(O)c1ccc2c(N=Nc3c(O)ccc4ccccc34)cccc2c1
2. CN(C)N1C(=O)SCC(c2ccccc2)(c2ccccc2)C1=O
3. O=C1OC(/C=C/c2ccccc2)Sc2ccccc21 (configuration not stated)
4. COc1ccc2nc3cccc([N+](=O)[O-])c3c(NCCCO)c2c1
5. CCOc1nc(OCC)nc(-c2cccn2-c2ccccc2)n1
6. CCCCCCCCCCCCCCCCCN
7. Cc1ccnc(NS(=O)(=O)c2ccc(Nc3c4ccccc4nc4ccccc34)cc2)n1
8. O=C(O)NCC1CCCCC1 (tested in a mixture with another compound)

[-1, -2, 0, 6, -2, -22, 13, 1]

Please give growth inhibition for each item listed below.
1. Nc1ccc2cc(Br)c3ccccc3c2c1
2. COc1ccc(/C=C2\CCc3ccccc3C2=O)cc1OC
3. CCN(CC)c1ccc(N=Nc2cc(S(=O)(=O)O)ccc2O)c(O)c1
4. [N-]=[N+]=NC1CC(n2ccc(=O)[nH]c2=O)OC1COC(c1ccccc1)(c1ccccc1)c1ccccc1 (configuration not stated)

1: -2; 2: 21; 3: 8; 4: -4
